Cited source for all entries: patent US20250351832A1

# Tested on: Spodoptera litura
# Condition set: in vivo
Observed property: % Corrected Mortality at 72 Hrs. (%)

>>> df
                        smiles_record  result
0                    Cc1ccc(C(C)C)cc1   68.42
1  COc1cc(CNC(=O)CCCC/C=C/C(C)C)ccc1O   44.74
2                  CC(C)c1ccc(C=O)cc1   52.63
3                  CC(C)=CCCC(C)=CC=O   50.00

----------
# Tested on: tomato seedlings
# Assay text: Response of tomato plants, greenhouse growth (Ex. 30)
# Assay type: in vivo
# Condition set: tomato seedlings; 10th day after application; dose 1 ml/gm/lit
Observed property: Stem Girth 10th Day

                                    molecule   result
 0   CC12CCC(CC1=O)C2(C)C (centres unmarked)  2.06 mm
 1        COc1cc(CNC(=O)CCCC/C=C/C(C)C)ccc1O  2.01 mm
 2                     CCCCCCCCCCCCCCCC(=O)O  2.32 mm
 3     O=C(/C=C/C=C/c1ccc2c(c1)OCO2)N1CCCCC1  2.24 mm
 4                     CC12CCC(CC1)C(C)(C)O2  2.16 mm
 5                       Cc1ccc(C(C)C)c(O)c1  2.53 mm
 6                           CCCCCCCCCC(C)=O  2.40 mm
 7                  C/C=C\c1cc(OC)c(OC)cc1OC  2.45 mm
 8      CC1=CCC2CC1C2(C)C (centres unmarked)  2.22 mm
 9  O=c1oc2c(O)c(O)cc3c(=O)oc4c(O)c(O)cc1c4c23  2.19 mm
10                  CC1=CC(=O)C(C(C)C)=CC1=O  2.30 mm

----------
# Test system: Helicoverpa armigera
# Condition set: Helicoverpa armigera 3rd instar on chickpea plants; dose 1 ml/gm/lit. spray; 72 hrs; corrected for water control
Observed property: % Corrected Mortality at 72 Hrs. (%)

>>> df
                                 compound                 observed_property  result
0                  C=C(C)[C@H]1CC=C(C)CC1  % Corrected Mortality at 72 Hrs.   32.50
1    CCCCC[C@H](O)CC(=O)CCc1ccc(O)c(OC)c1  % Corrected Mortality at 72 Hrs.   50.00
2  C=C1C2CCC(C2)C1(C)C (stereo not shown)  % Corrected Mortality at 72 Hrs.   60.00
3                C/C=C\c1cc(OC)c(OC)cc1OC  % Corrected Mortality at 72 Hrs.   52.50

----------
# Test system: Aphid
# Condition set: Dose 1 ml/gm/lit.; 48 hrs
Catalogue of molecules with associated % Mortality at 48 Hrs.
Observed property: % Mortality at 48 Hrs. (%)

In [3]: df
Out[3]:
                                    molecule  measure_unit  result
 0        C=CCc1ccc(OC)cc1 [Methyl chavicol]             %   65.00
 1  CC1CCC(C(C)C)C(O)C1 (stereo not drawn) [Menthol]             %   70.00
 2             C=CCc1ccc(O)c(OC)c1 [Eugenol]             %   60.00
 3      C/C=C\c1cc(OC)c(OC)cc1OC [β-Asarone]             %   72.50
 4             Cc1ccc(C(C)C)cc1O [Carvacrol]             %   70.00
 5  CCCCC[C@H](O)CC(=O)CCc1ccc(O)c(OC)c1 [Gingerol]             %   62.50
 6  CC1=CCC2CC1C2(C)C (stereo not drawn) [Alpha-pinene]             %   57.50
 7  C=C1C2CCC(C2)C1(C)C (stereo not drawn) [Camphene, camphene]             %   52.50
 8  CC12CCC(CC1=O)C2(C)C (stereo not drawn) [Camphor]             %   57.50
 9     CCCCCCCCCCCCCCCC(=O)O [Palmitic acid]             %   60.00
10  O=c1oc2c(O)c(O)cc3c(=O)oc4c(O)c(O)cc1c4c23 [Ellagic acid]             %   72.50
11       CC12CCC(CC1)C(C)(C)O2 [1,8 cineole]             %   65.00

----------
# System: tomato seedlings
# Assay text: Response of tomato plants, greenhouse growth (Ex. 30)
# Type: in vivo
# Condition set: tomato seedlings; dose 1 ml/gm/lit; 5th day after application
Catalogue of molecules with associated CCI 5th Day
Observed property: CCI 5th Day

                                    molecule  observed_property  result
 0                  CC1=CC(=O)C(C(C)C)=CC1=O        CCI 5th Day   14.21
 1                       C=CCc1ccc(OC)c(O)c1        CCI 5th Day   14.68
 2                     CCCCCCCCCCCCCCCC(=O)O        CCI 5th Day   13.26
 3                     CC12CCC(CC1)C(C)(C)O2        CCI 5th Day   13.55
 4                  C/C=C\c1cc(OC)c(OC)cc1OC        CCI 5th Day   13.45
 5     O=C(/C=C/C=C/c1ccc2c(c1)OCO2)N1CCCCC1        CCI 5th Day   13.89
 6   CC12CCC(CC1=O)C2(C)C (stereo not drawn)        CCI 5th Day   13.64
 7    CC1CCC(C(C)C)C(O)C1 (stereo not drawn)        CCI 5th Day   13.48
 8                        CC(C)c1ccc(C=O)cc1        CCI 5th Day   13.64
 9  O=c1oc2c(O)c(O)cc3c(=O)oc4c(O)c(O)cc1c4c23        CCI 5th Day   13.39
10                         Cc1ccc(C(C)C)cc1O        CCI 5th Day   13.62
11                          C=CCc1ccc(OC)cc1        CCI 5th Day   14.23

----------
# Tested on: Thrips
# Condition set: in vivo
Catalogue of molecules with associated % Corrected Mortality at 48 Hrs.
Observed property: % Corrected Mortality at 48 Hrs. (%)

>>> print(df.to_string())
                                   molecule  result
0               CC(C)=CCCC(C)=CC=O [Citral]   52.78
1               Cc1ccc(C(C)C)cc1 [p-Cymene]   52.78
2  COc1cc(CNC(=O)CCCC/C=C/C(C)C)ccc1O [Capsaicin]   55.56
3        CC(C)c1ccc(C=O)cc1 [Cuminaldehyde]   33.33

----------
# System: Aphid
# Condition set: Dose 1 ml/gm/lit.; 10 insects/treatment, 4 replications; cotton leaves
Observed property: Total No. of dead insect at 48 Hrs.

                                    molecule  system_name                    observed_property  result
 0                       Cc1ccc(C(C)C)c(O)c1        Aphid  Total No. of dead insect at 48 Hrs.    6.25
 1      CC1=CCC2CC1C2(C)C (stereo not shown)        Aphid  Total No. of dead insect at 48 Hrs.    5.75
 2                          C=CCc1ccc(OC)cc1        Aphid  Total No. of dead insect at 48 Hrs.    6.50
 3   CC12CCC(CC1=O)C2(C)C (stereo not shown)        Aphid  Total No. of dead insect at 48 Hrs.    5.75
 4                  CC1=CC(=O)C(C(C)C)=CC1=O        Aphid  Total No. of dead insect at 48 Hrs.    4.75
 5  O=c1oc2c(O)c(O)cc3c(=O)oc4c(O)c(O)cc1c4c23        Aphid  Total No. of dead insect at 48 Hrs.    7.25
 6                     CCCCCCCCCCCCCCCC(=O)O        Aphid  Total No. of dead insect at 48 Hrs.    6.00
 7     O=C(/C=C/C=C/c1ccc2c(c1)OCO2)N1CCCCC1        Aphid  Total No. of dead insect at 48 Hrs.    7.00
 8                  C/C=C\c1cc(OC)c(OC)cc1OC        Aphid  Total No. of dead insect at 48 Hrs.    7.25
 9                         Cc1ccc(C(C)C)cc1O        Aphid  Total No. of dead insect at 48 Hrs.    7.00
10                     CC12CCC(CC1)C(C)(C)O2        Aphid  Total No. of dead insect at 48 Hrs.    6.50
11    CC1CCC(C(C)C)C(O)C1 (stereo not shown)        Aphid  Total No. of dead insect at 48 Hrs.    7.00
12                           CCCCCCCCCC(C)=O        Aphid  Total No. of dead insect at 48 Hrs.    6.75
